Entry source: paper PMC5319863

# target-under-test: human Izumo1_(22-254), wild type (human, UniProt Q8IYV9-1 22-254)
# Sequence (Q8IYV9 22-254): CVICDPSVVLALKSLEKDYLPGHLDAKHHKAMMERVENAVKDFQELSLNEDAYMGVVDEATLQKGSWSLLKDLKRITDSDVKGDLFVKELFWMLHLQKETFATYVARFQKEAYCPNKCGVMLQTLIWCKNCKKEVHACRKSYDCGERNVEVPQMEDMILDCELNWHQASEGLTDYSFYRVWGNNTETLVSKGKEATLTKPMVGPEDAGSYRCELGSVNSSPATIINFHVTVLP
# run-description: BLI
measurement-name: koff (s⁻¹)
Express the result in s⁻¹ but write the number alone.

Need koff of W62A Juno_(20-228) (domain or fragment, human, UniProt A6ND01-1 20-228, looked up, biotinylated with the EZ link sulfo-NHS-LC-biotinylation kit (BLI)) GDELLNICMNAKHHKRVPSPEDKLYEECIPWKDNACCTLTTSAEAHLDVSPLYNFSLFHCGLLMPGCRKHFIQAICFYECSPNLGPWIQPVGSLGWEVAPSGQGERVVNVPLCQEDCEEWWEDCRMSYTCKSNWRGGWDWSQGKNRCPKGAQCLPFSHYFPTPADLCEKTWSNSFKASPERRNSGRCLQKWFEPAQGNPNVAVARLFAS , thanks.
0.0412
